Reported Kd values for a set of binders
- test-target: CV S-protein construct 6 trimer TP31001F (SARS-CoV-2, UniProt P0DTC2 14-1208)
- procedure-summary: SPR

Here are 2 binders together with their reported answers.
binder	Kd
variant 6-10 (Fc fusion) VHH: EVQLVESGGGLVQPGGSLRLSCAASGSIASIHAMGWFRQAPGKEREFVAAISRSGGFGSYADSVKGRFTISADNSKNTAYLQMNSLKPEDTAVYYCARDDKYYDSSGYPAYFQHWGQGTLVTVSS	0.6 nM
variant 5-21 (Fc fusion) VHH: EVQLVESGGGLVQPGGSLRLSCAASGGTFTTYHMGWFRQAPGKEREFVAHISTGGATNYADSVKGRFTISADNSKNTAYLQMNSLKPEDTAVYYCATFPAIVTDSDYDLGNDWGQGTLVTVSS	10 nM

Query: Can you look up the measured Kd of variant 5-55 (Fc fusion) VHH: EVQLVESGGGLVQPGGSLRLSCAASGIDVNRNAMGWFRQAPGKEREFVAAITWSGGWRYYADSVKGRFTISADNSKNTAYLQMNSLKPEDTAVYYCATTFGDAGIPDQYDFGWGQGTLVTVSS for me?
Reply: 0.6 nM

Query: Can you look up the measured Kd of variant 5-13 (Fc fusion) VHH: EVQLVESGGGLVQPGGSLRLSCAASGFTFDYYTMGWFRQAPGKEREFVAAIRSSGGLFYADSVKGRFTISADNSKNTAYLQMNSLKPEDTAVYYCAAYLDGYSGSWGQGTLVTVSS for me?
Reply: 3.8 nM

Query: Can you look up the measured Kd of variant 6-39 (Fc fusion) VHH: EVQLVESGGGLVQPGGSLRLSCAASGFTFSPSWMGWFRQAPGKEREFVAAISWSGGSTAYADSVKGRFTISADNSKNTAYLQMNSLKPEDTAVYYCHGLGEGDPYGDYEGYFDLWGQGTLVTVSS for me?
Reply: 0.1 nM

Query: Can you look up the measured Kd of variant 5-53 (Fc fusion) VHH: EVQLVESGGGLVQPGGSLRLSCAASGLTVVPYAMGWFRQAPGKEREFVAAIRRSAVTNYADSVKGRFTIIADNSKNTAYLLMNSLKPEDTAVYYCAARRWGYHYWGQGTLVTVSS for me?
Reply: 684 nM

Query: Can you look up the measured Kd of variant 6-43 (Fc fusion) VHH: EVQLVESGGGLVQPGGSLRLSCAASGRTFSSYAMMGWFRQAPGKEREFVASVNWDASQINYADSVKGRFTISADNSKNTAYLQMNSLKPEDTAVYYCTTLGAVYFDSSGYHDYFDYWGQGTLVTVSS for me?
Reply: 0.7 nM
